SYSTEM: Siglec-1 (sialoadhesin) (Mus musculus, UniProt Q62230)
Sequence (Q62230 20-136 limits assumed): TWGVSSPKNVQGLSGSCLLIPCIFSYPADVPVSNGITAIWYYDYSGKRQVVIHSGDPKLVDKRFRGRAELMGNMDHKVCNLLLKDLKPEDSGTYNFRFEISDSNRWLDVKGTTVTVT
TEST METHOD NOTES: Hapten inhibition assay, Siglec-1 (sialoadhesin)
Type: binding
CONDITION CONTEXT: quotient IC50 reference compound / IC50 compound
PARAMETER: Siglec-1 (sialoadhesin) rIP
Just the number, please, no unit attached.

MOLECULE	Siglec-1 (sialoadhesin) rIP
CC(=O)N[C@H]1[C@H]([C@H](O)[C@H](O)CO)O[C@@](O[C@H]2[C@@H](O)[C@@H](CO)O[C@@H](O[C@H]3[C@H](O)[C@@H](O)C(O)O[C@@H]3CO)[C@@H]2O)(C(=O)O)C[C@@H]1O (stereo partly shown) [2,3-sialyllactose, reference compound]	2.4

// below: Siglec-1 (sialoadhesin) rIP requested for another molecule
## Task // Input: COc1ccc(C(=O)NC[C@@H](O)[C@@H](O)[C@@H]2O[C@@](OC)(C(=O)O)C[C@H](O)[C@H]2NC(C)=O)cc1 . Output its Siglec-1 (sialoadhesin) rIP only.
## Result 8.4
